Source listed as the supplement of paper PMC10567573.

B1: CIB1 (parent)
chain: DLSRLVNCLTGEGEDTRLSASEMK

# Variants of: B1
# test: protein stability index of a GFP-peptide fusion (GPS, HEK-293T) (PSI 1-6); higher = more stable;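 note: lentivirally expressed fusions sorted by FACS into six bins by GFP to DsRed ratio, PSI derived from sequencing read proportions per bin multiplied by bin number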
# conditions: c terminus: a fixed tail appended
measured-quantity: protein stability index
# print the numeric value only

[
  {
    "residue-string": "DLSRLVNCLTGEIEDTRLSASEMK",
    "protein stability index": 3.55
  },
  {
    "residue-string": "DLSRLVNFLTGEGEDTRLSASEMK",
    "protein stability index": 2.46
  },
  {
    "residue-string": "DLSRLVNCLTGEGEDTRLSASEMI",
    "protein stability index": 1.81
  },
  {
    "residue-string": "DLSRLVNCLTGEVEDTRLSASEMK",
    "protein stability index": 2.65
  },
  {
    "residue-string": "DLCRLVNCLTGEGEDTRLSASEMK",
    "protein stability index": 2.98
  },
  {
    "residue-string": "DLSRLVNCLTGEGEDTRLSPSEMK",
    "protein stability index": 3.15
  }
]

Data request: Name the recorded protein stability index for DLSRLVNCLTGEGEDTRLSASEDK .
Data returned: 2.32

Data request: Then DLSRLVNCLTGEGEDKRLSASEMK ?
Data returned: 3.87

Data request: Then DLQRLVNCLTGEGEDTRLSASEMK ?
Data returned: 2.84

Data request: Then DLSRLVICLTGEGEDTRLSASEMK ?
Data returned: 2.59

Data request: Then DLSRLVNCLTGEGEGTRLSASEMK ?
Data returned: 3.83
